Measured inhibition (INH) accompanies every entry in the list below.
Tested on: Rattus norvegicus
Experiment: Anti-inflammatory activity in Rattus norvegicus Wistar albino (rat) assessed as inhibition of carrageenan-induced paw edema after 30 min (reference value: 30.1%)
Format: functional
Parameter: inhibition (INH) (%)

# Smiles record, Value reported
measured = [
    ("CCOC(=O)c1c(C)nn(-c2ccccc2)c1OCCCn1c(C)cc(C)c(C#N)c1=O", 22.4),
    ("COC(=O)c1c(C)nn(-c2ccccc2)c1OCCCN1C(=O)c2ccccc2C1=O", 5.9),
    ("COC(=O)c1c(C)nn(-c2ccccc2)c1OCCCOc1nc(C)cc(C)c1C#N", 16.8),
]
